Values compiled from patent US5721208A.

- Tested on: Clostridium perfringens 194
- Conditions: Agar dilution method
Decide using Minimum bacteriostatic inhibitory concentration: a value greater than or equal to 0.4 micrograms per milliliter is Satisfied, a smaller one is Not satisfied.

Check the entry CC(C)C[C@H](C(=O)N[C@H]1C(=O)NC(CC(N)=O)C(=O)N[C@H]2C(=O)N[C@H]3C(=O)N[C@H](C(=O)N[C@@H](C(=O)O)c4cc(O)cc(O)c4-c4cc3ccc4O)[C@H](O[C@H]3C[C@](C)(N)C(=O)[C@H](C)O3)c3ccc(c(Cl)c3)Oc3cc2cc(c3O[C@@H]2O[C@H](CO)[C@@H](O)[C@H](O)[C@H]2O)Oc2ccc(cc2Cl)[C@H]1O)N(C)C (stereo partly drawn) [Methylbalhimycin, methylbalhimycin] : does Minimum bacteriostatic inhibitory concentration equal or exceed 0.4 micrograms per milliliter?
Satisfied

Check the entry CNC(CC(C)C)C(=O)NC1C(=O)NC(CC(N)=O)C(=O)NC2C(=O)NC3C(=O)NC(C(=O)NC(C(=O)O)c4cc(O)cc(O)c4-c4cc3ccc4O)C(OC3CC(C)(N)C(=O)C(C)O3)c3ccc(c(Cl)c3)Oc3cc2cc(c3O)Oc2ccc(cc2Cl)C1O (stereo not drawn) [Desglucobalhimycin, desglucobalhimycin] : does Minimum bacteriostatic inhibitory concentration equal or exceed 0.4 micrograms per milliliter?
Not satisfied

Check the entry CC(C)CC(N)C(=O)NC1C(=O)NC(CC(N)=O)C(=O)NC2C(=O)NC3C(=O)NC(C(=O)NC(C(=O)O)c4cc(O)cc(O)c4-c4cc3ccc4O)C(OC3CC(C)(N)C(=O)C(C)O3)c3ccc(c(Cl)c3)Oc3cc2cc(c3OC2OC(CO)C(O)C(O)C2O)Oc2ccc(cc2Cl)C1O (stereo not drawn) [Desmethylbalhimycin, desmethylbalhimycin] : does Minimum bacteriostatic inhibitory concentration equal or exceed 0.4 micrograms per milliliter?
Not satisfied

Check the entry CC(C)CC(N)C(=O)NC1C(=O)NC(CC(N)=O)C(=O)NC2C(=O)NC3C(=O)NC(C(=O)NC(C(=O)O)c4cc(O)cc(O)c4-c4cc3ccc4O)C(OC3CC(C)(N)C(=O)C(C)O3)c3ccc(c(Cl)c3)Oc3cc2cc(c3O)Oc2ccc(cc2Cl)C1O (stereo not drawn) [Desmethyl-desglucobalhimycin, desmethyl-desglucobalhimycin] : does Minimum bacteriostatic inhibitory concentration equal or exceed 0.4 micrograms per milliliter?
Not satisfied

Check the entry CC1OC(OC2c3ccc(c(Cl)c3)Oc3cc4cc(c3OC3OC(CO)C(O)C(O)C3O)Oc3ccc(cc3Cl)C(O)C(N)C(=O)NC(CC(N)=O)C(=O)NC4C(=O)NC3C(=O)NC2C(=O)NC(C(=O)O)c2cc(O)cc(O)c2-c2cc3ccc2O)CC(C)(N)C1=O (stereo not drawn) [Desmethylleucylbalhimycin, desmethylleucylbalhimycin] : does Minimum bacteriostatic inhibitory concentration equal or exceed 0.4 micrograms per milliliter?
Satisfied
